Tested on: A431
method-description: filipin (cholesterol) integrated intensity within LBPA endosomes, Z-score; higher = more cholesterol in LBPA endosomes
condition-parameters: compound concentration in added solution (µM; 5 µl added to 20 µl cells): 10; 18 h
Where a name gives a salt, the structure may show the parent alone.
measured-quantity: filipin (z-score)

Check out these entries, answers already filled in.
O=C(O)Cc1ccccc1Nc1c(Cl)cccc1Cl [Diclofenac sodium]: -0.505
Cc1cc(C(=O)NNCc2ccccc2)no1 [Isocarboxazid]: -0.553
O=C(NCCNCC(O)COc1ccc(O)cc1)N1CCOCC1 (stereo not given) [Xamoterol hemifumarate]: -0.407
CCCNCC(O)COc1ccccc1C(=O)CCc1ccccc1 (stereo not given) [Propafenone hydrochloride]: 2.65

# ---- query compound ----
Which filipin (z-score) is reported with A431 for this entry: CCCCOC(=O)c1ccc(O)cc1 [Butylparaben] ?
-0.376

Hey, just so you know, these numbers are from the supplement of paper PMC6607015.
